- testTarget: T1, PBP1bγ (E. coli, UniProt P02919-2 1-799)
- T1 sequence: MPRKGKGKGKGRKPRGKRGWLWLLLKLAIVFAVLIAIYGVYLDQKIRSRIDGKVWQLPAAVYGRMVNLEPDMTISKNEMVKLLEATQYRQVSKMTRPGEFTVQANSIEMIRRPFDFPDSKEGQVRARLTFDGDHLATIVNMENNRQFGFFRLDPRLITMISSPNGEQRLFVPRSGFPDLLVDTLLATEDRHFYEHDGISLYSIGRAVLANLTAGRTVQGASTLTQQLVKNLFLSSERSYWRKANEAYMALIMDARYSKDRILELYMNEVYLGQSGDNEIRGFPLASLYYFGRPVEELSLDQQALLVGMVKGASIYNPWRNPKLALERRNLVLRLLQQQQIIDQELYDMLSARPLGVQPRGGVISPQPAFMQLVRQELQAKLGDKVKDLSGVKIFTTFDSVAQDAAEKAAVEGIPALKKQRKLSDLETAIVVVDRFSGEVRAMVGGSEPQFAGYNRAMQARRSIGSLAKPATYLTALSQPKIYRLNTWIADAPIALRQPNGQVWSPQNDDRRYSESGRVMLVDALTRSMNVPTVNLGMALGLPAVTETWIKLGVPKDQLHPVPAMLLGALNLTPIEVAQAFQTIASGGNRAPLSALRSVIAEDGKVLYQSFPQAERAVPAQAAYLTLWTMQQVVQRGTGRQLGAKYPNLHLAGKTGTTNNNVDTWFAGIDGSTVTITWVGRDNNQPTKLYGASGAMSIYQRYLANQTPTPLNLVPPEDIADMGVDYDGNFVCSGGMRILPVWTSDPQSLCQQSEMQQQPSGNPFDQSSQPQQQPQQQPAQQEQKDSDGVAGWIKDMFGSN
- procedureDetails: fluorescence polarisation
No end group written: not given here. *: point of attachment. FITC = O=C1OC2(c3ccc(O)cc3Oc3cc(O)ccc32)c2ccc(NC(=S)*)cc21
experimentalReadout: Kd (µM)
Hi! Could you send only the number? It should be in µM, unit omitted.

The value of Kd measured for the binder {FITC}-KVTGNGLPPKPEERWRYIKELESRQ [FITC labeled peptide (FITC-K69-Q93) of FtsN] turned out to be 8.1
